Origin of values: ChEMBL document CHEMBL1123529

system under test: Substance-P receptor (Rattus norvegicus) (UniProt P14600)
Sequence (P14600 whole entry, looked up): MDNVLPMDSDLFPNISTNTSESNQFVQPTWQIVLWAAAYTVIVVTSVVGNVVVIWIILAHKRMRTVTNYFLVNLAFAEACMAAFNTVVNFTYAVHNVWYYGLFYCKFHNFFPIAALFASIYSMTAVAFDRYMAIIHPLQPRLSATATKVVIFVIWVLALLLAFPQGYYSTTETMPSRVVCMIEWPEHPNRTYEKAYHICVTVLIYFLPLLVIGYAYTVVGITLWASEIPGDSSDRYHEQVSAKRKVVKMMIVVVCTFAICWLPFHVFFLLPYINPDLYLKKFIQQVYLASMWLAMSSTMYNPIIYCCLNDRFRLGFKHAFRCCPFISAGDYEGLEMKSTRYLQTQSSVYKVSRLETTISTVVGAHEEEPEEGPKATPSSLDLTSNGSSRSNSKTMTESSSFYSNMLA
protocol notes: Antagonistic activity against Substance P receptor in rat spinal cord at concentration of 50 uM.
Entries annotated with measured Change in amplitude response
measure name: Change in amplitude response

molecule	measured
COC(=O)[C@@H](CCSC)NC(=O)[C@H](CC(C)C)NC(=O)CNC(=O)[C@H](Cc1ccccc1)NC(=O)[C@H](Cc1ccccc1)NC(=O)[C@@H](NC(=O)[C@H](NC(=O)[C@@H]1CCCN1C(=O)[C@H](CCCCNC(=O)OCc1ccccc1)NC(=O)[C@@H]1CCCN1C(=O)[C@H](CCCN=C(N)N)NC(=O)OCc1ccccc1)C(C)C)C(C)C	-13%
CSCC[C@@H](NC(=O)[C@H](CC(C)C)NC(=O)[C@@H](Cc1c[nH]c2ccccc12)NC(=O)C(Cc1ccccc1)NC(=O)[C@@H](Cc1c[nH]c2ccccc12)NC(=O)[C@H](CCC(N)=O)NC(=O)[C@H](CCC(N)=O)NC(=O)C1CCCN1C(=O)[C@H](CCCCN)NC(=O)C1CCCN1C(=O)[C@@H](N)CCCN=C(N)N)C(=O)O (stereo in doubt)	16%
COC(=O)[C@H](CCSC)NC(=O)[C@@H](NC(=O)[C@H](NC(=O)[C@H](Cc1ccccc1)NC(=O)[C@H](Cc1ccccc1)NC(=O)[C@H](CCC(N)=O)NC(=O)[C@H](CCC(N)=O)NC(=O)[C@@H]1CCCN1C(=O)[C@H](CCCCNC(=O)OCc1ccccc1)NC(=O)[C@@H]1CCCN1C(=O)[C@H](CCCN=C(N)N)NC(=O)OCc1ccccc1)C(C)C)C(C)C	-30%

* * *

system under test: Substance-P receptor (Cavia porcellus) (UniProt P30547)
Sequence (P30547 whole entry): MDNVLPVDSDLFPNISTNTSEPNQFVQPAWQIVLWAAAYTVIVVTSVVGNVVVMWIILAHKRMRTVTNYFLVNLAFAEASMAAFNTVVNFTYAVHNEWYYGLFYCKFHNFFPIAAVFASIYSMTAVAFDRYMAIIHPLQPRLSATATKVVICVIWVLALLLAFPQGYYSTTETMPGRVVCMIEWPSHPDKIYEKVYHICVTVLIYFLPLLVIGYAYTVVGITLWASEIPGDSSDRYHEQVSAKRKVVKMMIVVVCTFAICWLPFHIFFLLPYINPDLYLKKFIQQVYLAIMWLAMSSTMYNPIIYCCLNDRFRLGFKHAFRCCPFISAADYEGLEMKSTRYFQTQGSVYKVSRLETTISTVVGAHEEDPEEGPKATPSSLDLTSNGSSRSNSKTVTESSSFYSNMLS
protocol notes: Antagonistic activity against Substance P receptor in guinea pig ileum at concentration of 5 uM.
Assay type: functional, tissue-based

molecule	Activity
COC(=O)[C@@H](CCSC)NC(=O)[C@H](CC(C)C)NC(=O)[C@@H](Cc1c[nH]c2ccccc12)NC(=O)[C@H](Cc1c[nH]c2ccccc12)NC(=O)[C@@H](Cc1c[nH]c2ccccc12)NC(=O)[C@H](CCC(N)=O)NC(=O)[C@H](CCC(N)=O)NC(=O)[C@@H]1CCCN1C(=O)[C@H](CCCCNC(=O)OCc1ccccc1)NC(=O)[C@@H]1CCCN1C(=O)[C@@H](N)CCCN=C(N)N	< 2 dose ratio
COC(=O)[C@H](CCSC)NC(=O)[C@@H]1CCCN1C(=O)[C@H]1CCCN1C(=O)[C@H](Cc1ccccc1)NC(=O)[C@H](Cc1ccccc1)NC(=O)[C@H](CCC(N)=O)NC(=O)[C@H](CCC(N)=O)NC(=O)[C@@H]1CCCN1C(=O)[C@H](CCCCNC(=O)OCc1ccccc1)NC(=O)[C@@H]1CCCN1C(=O)[C@H](CCCN=C(N)N)NC(=O)OCc1ccccc1	< 2 dose ratio
COC(=O)[C@H](CCSC)NC(=O)[C@H](Cc1c[nH]c2ccccc12)NC(=O)[C@@H](Cc1c[nH]c2ccccc12)NC(=O)[C@H](Cc1ccccc1)NC(=O)[C@H](Cc1ccccc1)NC(=O)[C@H](CCC(N)=O)NC(=O)[C@H](CCC(N)=O)NC(=O)[C@@H]1CCCN1C(=O)[C@H](CCCCNC(=O)OCc1ccccc1)NC(=O)[C@@H]1CCCN1C(=O)[C@H](CCCN=C(N)N)NC(=O)OCc1ccccc1	< 2 dose ratio
CSCC[C@@H](NC(=O)[C@H](CC(C)C)NC(=O)[C@@H](Cc1c[nH]c2ccccc12)NC(=O)C(Cc1ccccc1)NC(=O)[C@@H](Cc1c[nH]c2ccccc12)NC(=O)[C@H](CCC(N)=O)NC(=O)[C@H](CCC(N)=O)NC(=O)C1CCCN1C(=O)[C@H](CCCCN)NC(=O)C1CCCN1C(=O)[C@@H](N)CCCN=C(N)N)C(=O)O (stereo in doubt)	6.3 dose ratio
